# Target: human TLR8 (Homo sapiens, UniProt Q9NR97)
# Sequence (Q9NR97 27-1041): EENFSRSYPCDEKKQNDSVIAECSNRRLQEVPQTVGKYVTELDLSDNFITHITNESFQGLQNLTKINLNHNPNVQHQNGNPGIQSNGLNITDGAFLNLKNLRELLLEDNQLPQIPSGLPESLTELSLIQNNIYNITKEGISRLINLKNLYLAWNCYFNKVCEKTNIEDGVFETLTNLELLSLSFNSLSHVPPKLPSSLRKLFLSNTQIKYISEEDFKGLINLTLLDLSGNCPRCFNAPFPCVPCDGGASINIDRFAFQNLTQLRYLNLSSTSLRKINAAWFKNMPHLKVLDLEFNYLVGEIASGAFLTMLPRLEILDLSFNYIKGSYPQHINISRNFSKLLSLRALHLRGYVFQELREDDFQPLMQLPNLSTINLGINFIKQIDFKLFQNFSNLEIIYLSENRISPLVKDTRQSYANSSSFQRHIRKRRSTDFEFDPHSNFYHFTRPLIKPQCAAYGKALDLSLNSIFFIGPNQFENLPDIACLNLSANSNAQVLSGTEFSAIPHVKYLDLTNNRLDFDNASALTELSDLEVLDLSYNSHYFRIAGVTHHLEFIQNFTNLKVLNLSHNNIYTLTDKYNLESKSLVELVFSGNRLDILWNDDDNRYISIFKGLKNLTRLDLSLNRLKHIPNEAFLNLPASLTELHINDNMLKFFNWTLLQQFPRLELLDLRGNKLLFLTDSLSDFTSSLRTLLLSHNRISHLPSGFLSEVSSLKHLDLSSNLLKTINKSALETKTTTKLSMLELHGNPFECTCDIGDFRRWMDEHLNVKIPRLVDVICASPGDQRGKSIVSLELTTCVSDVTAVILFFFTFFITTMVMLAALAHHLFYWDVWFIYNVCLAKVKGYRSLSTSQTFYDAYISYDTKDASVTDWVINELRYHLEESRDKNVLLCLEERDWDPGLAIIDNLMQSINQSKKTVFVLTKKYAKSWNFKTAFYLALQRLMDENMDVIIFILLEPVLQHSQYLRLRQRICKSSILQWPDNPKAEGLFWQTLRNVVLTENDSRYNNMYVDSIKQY
# Run description: TLR8 inhibition reporter assay (HEK-Blue cells, secreted embryonic alkaline phosphatase reporter)
# Assay setup: HEK-Blue cells overexpressing human TLR8, stimulated with R848 15.9 μM; read-out: TLR 8 IC50
pIC50: −log10 of the molar value.
Observed property: pIC50

Some solved cases for reference:
>>> readout_value("Cn1c(-c2ccc(S(C)(=O)=O)cc2)nc2ccc(C3CCN(C4CC5CCC(C4)N5CC4CC4)CC3)c(F)c21 (stereo not drawn) [Example 268]")
"< 4.30"
>>> readout_value("Cc1cc(-c2ccc(N3CCN(C4CCC4)CC3)cc2)cc2c1nc(-c1ccc(S(C)(=O)=O)cc1)n2C")
"< 4.30"

The record that follows has no pIC50 shown yet.
Sure, the documented pIC50 for Cc1cc(C2CCN(C3CC4CCC(C3)N4CC(C)C)CC2)cc2[nH]c(-c3ccc(S(C)(=O)=O)c(F)c3)nc12 (stereo not drawn) is < 4.60
